For each of the compounds below, state its pIC50.
TESTED_TARGET: PI3K/PI4K catalytic domain-containing protein (Cryptosporidium hominis)
Sequence (A0A0S4TH36 whole entry, the tested form may be a part): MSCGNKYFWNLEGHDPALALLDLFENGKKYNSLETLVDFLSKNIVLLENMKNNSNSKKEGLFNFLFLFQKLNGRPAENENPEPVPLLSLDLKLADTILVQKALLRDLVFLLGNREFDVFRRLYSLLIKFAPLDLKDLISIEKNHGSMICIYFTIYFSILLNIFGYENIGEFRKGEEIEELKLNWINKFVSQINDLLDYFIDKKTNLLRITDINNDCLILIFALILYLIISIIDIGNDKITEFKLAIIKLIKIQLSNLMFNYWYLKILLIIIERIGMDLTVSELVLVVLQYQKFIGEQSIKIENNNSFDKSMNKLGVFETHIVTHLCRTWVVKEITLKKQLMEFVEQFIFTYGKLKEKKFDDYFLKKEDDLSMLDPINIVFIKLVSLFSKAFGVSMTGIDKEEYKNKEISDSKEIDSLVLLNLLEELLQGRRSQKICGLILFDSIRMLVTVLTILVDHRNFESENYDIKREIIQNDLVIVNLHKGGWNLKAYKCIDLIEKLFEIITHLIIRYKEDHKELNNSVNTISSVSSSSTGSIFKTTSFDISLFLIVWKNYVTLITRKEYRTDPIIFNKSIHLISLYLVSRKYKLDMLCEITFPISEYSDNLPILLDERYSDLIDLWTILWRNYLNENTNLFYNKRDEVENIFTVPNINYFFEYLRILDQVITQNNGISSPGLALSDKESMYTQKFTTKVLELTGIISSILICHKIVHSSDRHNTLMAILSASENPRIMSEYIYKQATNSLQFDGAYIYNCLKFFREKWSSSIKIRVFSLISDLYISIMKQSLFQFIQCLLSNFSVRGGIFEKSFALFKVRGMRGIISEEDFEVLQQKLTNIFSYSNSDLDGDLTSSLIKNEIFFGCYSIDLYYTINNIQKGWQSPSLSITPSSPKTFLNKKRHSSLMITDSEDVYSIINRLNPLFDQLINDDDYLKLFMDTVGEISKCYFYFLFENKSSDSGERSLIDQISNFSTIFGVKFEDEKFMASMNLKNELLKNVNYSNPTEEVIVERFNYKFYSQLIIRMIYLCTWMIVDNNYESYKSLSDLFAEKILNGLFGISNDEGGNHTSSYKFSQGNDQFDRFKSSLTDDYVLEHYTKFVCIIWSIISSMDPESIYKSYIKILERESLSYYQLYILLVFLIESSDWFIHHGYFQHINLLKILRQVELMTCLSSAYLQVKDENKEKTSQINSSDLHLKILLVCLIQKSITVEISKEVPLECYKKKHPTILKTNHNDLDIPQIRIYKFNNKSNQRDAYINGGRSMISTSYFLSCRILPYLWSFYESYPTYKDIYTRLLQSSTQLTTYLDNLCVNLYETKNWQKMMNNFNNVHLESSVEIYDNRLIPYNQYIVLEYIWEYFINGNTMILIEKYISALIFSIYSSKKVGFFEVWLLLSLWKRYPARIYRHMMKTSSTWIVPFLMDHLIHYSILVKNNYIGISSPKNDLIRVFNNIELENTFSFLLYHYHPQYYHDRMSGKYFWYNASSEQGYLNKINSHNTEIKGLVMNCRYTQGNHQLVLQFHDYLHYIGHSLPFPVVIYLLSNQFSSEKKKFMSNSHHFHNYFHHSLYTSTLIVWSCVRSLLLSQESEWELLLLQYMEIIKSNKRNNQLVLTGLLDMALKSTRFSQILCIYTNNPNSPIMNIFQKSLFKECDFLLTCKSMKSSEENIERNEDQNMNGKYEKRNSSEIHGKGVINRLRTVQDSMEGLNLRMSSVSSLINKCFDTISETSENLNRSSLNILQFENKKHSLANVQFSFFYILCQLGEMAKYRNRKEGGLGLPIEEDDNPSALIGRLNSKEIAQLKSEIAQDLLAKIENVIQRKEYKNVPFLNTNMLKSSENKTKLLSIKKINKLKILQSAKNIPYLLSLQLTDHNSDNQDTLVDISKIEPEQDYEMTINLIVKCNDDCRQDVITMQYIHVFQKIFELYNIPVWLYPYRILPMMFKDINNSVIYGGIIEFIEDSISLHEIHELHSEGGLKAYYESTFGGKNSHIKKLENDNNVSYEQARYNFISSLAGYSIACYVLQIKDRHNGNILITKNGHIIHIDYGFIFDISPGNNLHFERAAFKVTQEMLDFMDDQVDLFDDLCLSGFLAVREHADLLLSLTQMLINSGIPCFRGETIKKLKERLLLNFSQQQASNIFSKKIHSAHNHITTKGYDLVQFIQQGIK
pIC50: −log10 of the molar value.

Endpoint output: pIC50 of CCOC(=O)OC(C)OC(=O)c1cc(N(C)C(=O)c2ccn3ncc(-c4ccc(C(N)=O)cc4)c3c2)ccc1Cl (racemic) [WO2022079616, Example 1.14] . Value?
< 6.00

Endpoint output: pIC50 of CNC(=O)c1ccc(-c2cnn3ccc(C(=O)N(C)c4ccc(Cl)c(C(=O)OCCN5CCOCC5)c4)cc23)cc1 [WO2022079616, Example 1.19] . Value?
6.26

Endpoint output: pIC50 of COC(=O)c1cc(N(C)C(=O)c2ccn3ncc(-c4ccc(C(N)=O)cc4)c3c2)ccc1C#N [WO2022079616, Example 1.27] . Value?
< 6.00
